Tested on: MCF-10A
assay_explanation: Cytotoxicity against human MCF10A cells incubated for 72 hrs by MTT assay
Format: cell-based
measured_attribute: IC50

Name the reported IC50 value associated with the compound C[C@H]1[C@H](N2CCN(C(=S)SCc3ccc(C#N)cc3)CC2)O[C@@H]2O[C@@]3(C)CC[C@H]4[C@H](C)CC[C@@H]1[C@@]24OO3
22.4 nM
